Reference source: PubChem BioAssay

Please go through the items and note down their z-score.
- ASSAY: plasmodial surface anion channel blockers, osmotic lysis – cell-based, P. falciparum Indochina, OD700, 18 h, primary screen (AID 1157)
- CONDITION_PARAMETERS: P. falciparum Indochina infected erythrocytes, osmotic lysis OD700, 18 h; higher = more signal, called active from +8 up or from −8 down
Numbers only.

Would you please look over these solved cases?
C=CCC(OC(C)=O)[C@@H]1[C@@H](N(Cc2ccc(-c3ccccc3)cc2)C(=O)Cc2ccc(F)cc2)c2cc(OCCCO)ccc2N1C(=O)c1ccc2ccccc2c1 (some centres not stated) : 0.703
COC(=O)c1c2oc(c1C(=O)OC)C(=O)N[C@@H](C(C)C)Cn1cc(nn1)C1(CCCCC1)NC(=O)N[C@H](CO)CC2 : 0.36
CCCNC(=O)[C@@H]1c2ccccc2C(=O)N(Cc2ccccc2OC)[C@H]1c1ccc(CO)cc1 : 0.0117
COc1cc2c(cc1O)C(c1cccs1)N(Cc1cccc(OC(F)(F)F)c1)CC2 (configuration not stated) : -0.751
CCOC(=O)C[C@H]1[C@H](OC(=O)c2ccc(C(=O)c3ccccc3)cc2)[C@@H](NC(=O)c2ccccc2)c2cc(OCCCO)ccc2N1C(=O)c1ccccc1 : 0.357

For every item below, please supply its z-score.
1. CCCCN1CC=CC23O[C@@H]4C=CCCOC(=O)C4[C@H]2C(=O)N(CCCCCO)[C@@H]3C1=O (some centres not stated)
2. O=C1OCCC=C[C@H]2OC34C=CCN(CCN5CCOCC5)C(=O)[C@H]3N(CCCCCO)C(=O)[C@@H]4C12 (some centres not stated)

[0.331, 0.305]

====

- TARGET_OR_SYSTEM: Torsin-1A (Homo sapiens)
- ASSAY: TOR1A wild-type binding on microarray – cell lysate, small-molecule microarray, lysate, 635/667 nm, primary screen (AID 1149)
- CONDITION_PARAMETERS: COS7 hTOR1A-WT lysate, 635 nm fluorescence, higher = more signal
Label MET when composite z-score >= 0.5; otherwise NOT MET.

The examples below pair each entry with its known result.
CCCCC(=C=CC[C@@H](O)c1ccc(CO)o1)CCO : MET
[N-]=[N+]=NCc1ccccc1[C@@H]1OC(c2ccc(OCCCO)cc2)=N[C@]1(CCS(=O)(=O)c1ccccc1)C(=O)N1CCCCC1 : NOT MET
CN(C)CCCCCCNC(=O)[C@@H]1C[C@@H]2C(=O)N3CCC[C@H]3C(=O)N2[C@@H]1c1ccc(O)cc1 : MET
CN1C(=O)C2C=CC(C(O)c3c(F)cccc3Cl)N(NC(=O)OC(C)(C)C)C2C1=O (stereo not drawn) : MET

composite z-score >= 0.5 for Cc1ccc(S[C@]2(C(=O)O)CC(=O)N(C(C)C)[C@@H]2c2ccc(CO)cc2)cc1 ? NOT MET

Hello, I need to know if CCOC(=O)C1=CC[C@@H](c2ccccc2)N(S(=O)(=O)c2ccc(C)cc2)[C@H]1c1ccc(CC)cc1 has measured composite z-score not below 0.5. Thanks! MET

Please check the record O=C1OCC=C[C@H]2OC34C=CCN(Cn5nnc6ccccc65)C(=O)[C@H]3N(CCCCCO)C(=O)[C@@H]4[C@@H]12 (stereo partly drawn) and state if its composite z-score is at or above 0.5. NOT MET

====

- ASSAY: compound effects on lung adenocarcinoma cell viability – A549, calcein-AM fluorescence, 48 h, basal, profiling panel (AID 1162); note: test concentration not given here
- CONDITION_PARAMETERS: higher = more signal
MEASURED_QUANTITY: z-score
Numbers only.

These recorded examples may help you get a feel for the data.
CC(C)NC(=O)[C@@]1(Cc2ccccc2I)c2ccccc2C(=O)N(Cc2ccccc2Cl)[C@H]1c1ccc(CO)cc1 : -0.271
CC(c1ccccc1)C(O)C1C=CC2C(=O)N(C)C(=O)C2N1NC(=O)OC(C)(C)C (stereo not given) : -0.431

Parameters: items (list). Returns: z-score for each item.
1. [N-]=[N+]=NCc1ccccc1C[C@@]1(C(=O)NCC(O)CO)N=C(c2ccc(OCCCO)cc2)O[C@@H]1c1ccccc1 (stereo not given in full)
2. CC(C)(C)OC(=O)CC[C@]1(C(N)=O)N=C(c2ccc(OCCCO)cc2)O[C@H]1c1ccccc1
3. Cc1ccc(/C=C/C=O)cc1

1. -1.64
2. -0.73
3. 0.572

====

Could you please report measured z-score for the items listed next?
- ASSAY: forskolin-driven CRE-LacZ activity in PC12 – cell-based, CRE-LacZ reporter, forskolin-stimulated, primary screen (AID 1146);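 note: PC12 cells with 6xCRE LacZ reporter stimulated by forskolin 10 µM; beta-galactosidase reporter signal reflecting CREB driven transcription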
- CONDITION_PARAMETERS: luminescence, 4.5 h, higher = more signal, called active from +8 up or from −8 down
Give bare numbers.

// solved cases for z-score follow
CCCCCCc1nc(-c2ccc(-c3ccc(Cl)c(Cl)c3)o2)c(C)c2c1[Si](C(C)C)(C(C)C)OC2 : 0.246
CC(C)Cc1ccc(CN2CC[C@@H](N)C2)cc1 : 1.52
O=C1OCC=C[C@H]2OC34C=CCN(CCN5CCOCC5)C(=O)[C@H]3N(CCO)C(=O)[C@@H]4[C@@H]12 (stereo not given in full) : 0.168

Record z-score for all entries; do not skip any.
1. COC(=O)[C@@]1(Cc2ccc(OC)cc2)[C@H]2c3cc(C(=O)N4CCCC4)n(CCc4ccc(O)c(O)c4)c3C[C@H]2CN1C(=O)c1ccccc1
2. O=C1C2C=CC(C(O)c3c(F)cccc3Cl)N(Nc3ccccc3F)C2C(=O)N1c1ccccc1 (stereo not given)

[0.706, -0.0389]

====

Could you please report measured composite z-score for the items listed next?
- Test system: PRMT1 (protein arginine N-methyltransferase 1)
- ASSAY: small molecules binding arginine methyltransferase PRMT1 – biochemical, small-molecule microarray, 635 nm fluorescence, primary screen (AID 1088);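 note: binding of Prmt1 protein to compounds spotted on small-molecule microarray slides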
- CONDITION_PARAMETERS: higher = more signal
Numbers only.

Examples from the recorded data:
COCC(=C=CC[C@H](O)c1cccc(OCCO)c1)C[C@H](O)c1cc(Cl)cc(Cl)c1O : 1.54
C=C(CCCC)C(=O)CC[C@H](OC(=O)c1cccnc1)c1ccc(OCCO)cc1 : 0.417
CS(=O)(=O)CCOC(=O)C1=CC(CCCO)=CC(C2CC2)N(Cc2cc3c(cc2Br)OCO3)C=C1C(=O)OCCS(C)(=O)=O (stereo not given) : 1.37
O=C1O[C@H](c2ccccc2)[C@H](c2ccccc2)N2[C@H]1[C@@H](C(=O)N1CCN(c3ncccn3)CC1)[C@]1(C(=O)Nc3ccc(C#CC4=CCCCC4)cc31)[C@H]2c1ccccc1OCCO : 1.53
CC#CC(=O)Oc1ccc(Br)cc1C=CC(=O)OCC : 0.162
CO[C@H]1O[C@H](CO)[C@@H](OC(=O)Nc2ccccc2)[C@@H]2OC(=O)[C@@H](Cc3ccc4ccccc4c3)C/C=C/C[C@H](Cc3ccc4ccccc4c3)C(=O)O[C@@H]12 : 1.47
C=CC[C@]1(C(N)=O)N=C(c2ccc(OCCCO)cc2)O[C@H]1c1ccccc1 : 0.243
Cc1ccc(C2C3C(=O)CC4C(=O)N(c5ccccc5)C(=O)C4C3CN2S(=O)(=O)c2ccc(C)cc2)cc1 (stereo not given) : 1.32

Could you report composite z-score for every entry in the following list?
1. COc1ccc([Si](C)(C)[C@@H]2[C@@H](CCO)O[C@]3(C(=O)N(Cc4cccc(N5CCOC5=O)c4)c4ccccc43)[C@H]2C)cc1
2. CN(C)C(=O)[C@]1(Cc2ccccc2)N=C(c2ccc(OCCCO)cc2)O[C@@H]1c1ccccc1N=[N+]=[N-]
3. NCCCCCNC(=O)[C@H]1C[C@H]2C(=O)N[C@@H](Cc3ccccc3)C(=O)N2[C@H]1c1cccc(OCCO)c1

[1.42, 1.56, 0.788]

Could you tell me composite z-score for each of these compounds? They are listed below.
1. CCCCC(O)C1C=CC2C(=O)N(C)C(=O)C2N1N1CCCCC1 (stereo not given)
2. OCCCC1=CC(C2CC2)N(Cc2cccc(OC(F)(F)F)c2)CC1 (stereo not given)
3. CN(C)CCCC[C@@H]1NC(=O)[C@H]2C[C@@H](C(=O)NCCCCCN)[C@@H](c3cccc(OCCO)c3)N2C1=O
4. C=CC[C@]1(C(N)=O)COC(c2ccc(OCCCO)cc2)=N1
5. COC(=O)c1c2oc(c1C(=O)OC)C(=O)N[C@@H](C(C)C)Cn1cc(nn1)C1(CCCCC1)NC(=O)N[C@H](CO)CC2
6. C=CCN1C(=O)[C@]2(O[C@H](CCO)[C@@H]([Si](C)(C)c3ccc(OC)cc3)[C@@H]2C)c2cc(N(C=O)c3ccccc3)ccc21
7. CCCCC(=C=CC[C@@H](O)c1ccc(CO)o1)CCO
8. COc1ccc([Si](C)(C)[C@@H]2[C@@H](CCn3cc([C@H](O)c4ccccc4)nn3)O[C@]3(C(=O)N(Cc4cccc(N5CCC5=O)c4)c4ccccc43)[C@H]2C)cc1

1: 0.506; 2: 0.352; 3: 1.54; 4: 0.322; 5: 0.523; 6: 1.47; 7: 0.954; 8: -0.284

Each of the following entries comes with a recorded value; kindly state composite z-score for each.
1. O=C1C2C=CC(C(O)COCc3ccccc3)N(Nc3ccc([N+](=O)[O-])cc3)C2C(=O)N1c1ccccc1 (stereo not given)
2. COC(=O)[C@@]1(Cc2ccc(F)cc2)[C@H]2c3cc(C(=O)N(C)C)n(Cc4cc(C)n(C)n4)c3C[C@H]2CN1C(=O)c1ccccc1
3. CCOC(=O)C[C@H]1[C@H](OC(=O)c2cc3ccccc3oc2=O)[C@@H](NC(=O)CC(C)C)c2cc(OCCCO)ccc2N1C(=O)c1ccccc1
4. CCCCCCc1nc(-c2ccc(-c3ccc(Cl)c(Cl)c3)o2)cc2c1[Si](C(C)C)(C(C)C)O[C@H]2c1ccccc1
5. C=CCOC(=O)[C@H]1[C@@H]2C(=O)O[C@@H](c3ccccc3)[C@@H](c3ccccc3)N2[C@@H](c2ccc(OCCOC(=O)[C@@H]3C[C@@H]4C(=O)N5CCC[C@H]5C(=O)N4[C@@H]3c3cccc(OCCO)c3)cc2)[C@]12C(=O)Nc1ccc(I)cc12
6. COC(=O)c1c(CC[C@@H](CO)NC(=O)N[C@@H](Cc2ccccc2)Cn2cc(-c3ccccn3)nn2)oc(C(=O)N2CCOCC2)c1C(=O)OC

1: 1.46; 2: 1.02; 3: 0.983; 4: 0.287; 5: 1.56; 6: 0.278

Provide composite z-score for all items below, preserving their order.
1. O=C1C2C=CC(C(O)c3c(F)cccc3Cl)N(Nc3ccccc3F)C2C(=O)N1c1ccccc1 (stereo not given)
2. C[N+](C)(C)CCCC[C@@H]1NC(=O)[C@@H]2C[C@H](C(=O)NCCCCCN)[C@H](c3ccc(O)cc3)N2C1=O
3. COC(=O)[C@]1(Cc2ccccc2)N=C(c2ccc(OCCCO)cc2)O[C@@H]1c1ccccc1N=[N+]=[N-]
4. [N-]=[N+]=NCc1ccccc1[C@@H]1OC(c2ccc(OCCCO)cc2)=N[C@]1(CCS(=O)(=O)c1ccccc1)C(N)=O
5. O=C(CS)NCCCCCNC(=O)[C@H]1C[C@H]2C(=O)NCC(=O)N2[C@H]1c1ccc(O)cc1

0.0998
1.53
1.52
1.56
-0.313
